molecular target: Cytochrome P450 3A2 (Rattus norvegicus); assay: Inhibition of CYP3A2 in rat liver microsomes using midazolam as substrate; type: ADME, Microsome
Sequence (P05183 whole entry): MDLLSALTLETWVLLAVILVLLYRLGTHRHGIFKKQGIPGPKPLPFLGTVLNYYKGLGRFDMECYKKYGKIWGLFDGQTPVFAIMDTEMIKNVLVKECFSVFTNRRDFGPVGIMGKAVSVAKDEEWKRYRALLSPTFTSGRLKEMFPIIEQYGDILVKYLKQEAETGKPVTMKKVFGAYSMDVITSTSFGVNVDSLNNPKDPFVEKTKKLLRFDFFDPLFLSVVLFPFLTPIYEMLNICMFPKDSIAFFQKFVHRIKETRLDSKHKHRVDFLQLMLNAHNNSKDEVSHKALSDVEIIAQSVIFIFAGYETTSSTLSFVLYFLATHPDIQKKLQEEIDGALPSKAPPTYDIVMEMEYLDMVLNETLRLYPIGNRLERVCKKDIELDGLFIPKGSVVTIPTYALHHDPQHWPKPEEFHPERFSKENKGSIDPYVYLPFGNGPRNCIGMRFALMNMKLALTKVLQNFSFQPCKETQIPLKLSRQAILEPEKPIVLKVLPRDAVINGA
measurementName: Ki (µM)
Just the number please, in µM, no unit attached.

// returns reported Ki for input CCCCCCCCCCCCCCC(=O)Nc1ccn([C@@H]2O[C@H](CO)[C@@H](O)C2(F)F)c(=O)n1
52.6

###

Biological target: Cytochrome P450 2C6 (Rattus norvegicus, UniProt P05178)
Sequence (P05178 whole entry): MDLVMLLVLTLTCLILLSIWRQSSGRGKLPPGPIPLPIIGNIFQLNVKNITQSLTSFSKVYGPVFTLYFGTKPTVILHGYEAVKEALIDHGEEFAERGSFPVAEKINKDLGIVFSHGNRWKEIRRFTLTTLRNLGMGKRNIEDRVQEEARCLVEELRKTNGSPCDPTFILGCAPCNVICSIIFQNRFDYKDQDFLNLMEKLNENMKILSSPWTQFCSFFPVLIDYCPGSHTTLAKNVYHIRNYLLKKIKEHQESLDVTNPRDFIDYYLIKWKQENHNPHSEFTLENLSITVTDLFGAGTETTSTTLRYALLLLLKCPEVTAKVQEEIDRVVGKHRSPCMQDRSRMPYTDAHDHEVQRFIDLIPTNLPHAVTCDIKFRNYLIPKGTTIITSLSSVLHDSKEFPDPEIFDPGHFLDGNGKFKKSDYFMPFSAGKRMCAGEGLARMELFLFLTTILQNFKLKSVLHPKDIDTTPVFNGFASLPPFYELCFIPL
measurementName: Ki

// returns reported Ki for input CCCCCCCCCCCCCCC(=O)Nc1ccn([C@@H]2O[C@H](CO)[C@@H](O)C2(F)F)c(=O)n1
203 µM
